molecular target: delta opioid receptor (DOR) (Mus musculus, UniProt P32300); test: DOR [35S]-GTPγS binding assay
Sequence (P32300 whole entry): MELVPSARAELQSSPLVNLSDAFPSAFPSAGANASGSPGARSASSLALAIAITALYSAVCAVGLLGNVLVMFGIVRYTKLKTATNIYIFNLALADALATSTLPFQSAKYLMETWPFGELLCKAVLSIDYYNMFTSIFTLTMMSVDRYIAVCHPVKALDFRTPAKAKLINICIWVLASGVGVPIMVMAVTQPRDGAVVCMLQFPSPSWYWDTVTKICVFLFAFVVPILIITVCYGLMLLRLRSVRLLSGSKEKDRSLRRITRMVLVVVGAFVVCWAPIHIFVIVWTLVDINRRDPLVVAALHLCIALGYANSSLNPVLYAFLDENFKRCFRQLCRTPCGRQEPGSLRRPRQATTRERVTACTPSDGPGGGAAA
readout.type: pEC50
Scale: pEC50 equals -log10([C]), with [C] in mol/L.

A selection of reference data follows.
[ask] // query pEC50 value for entry O=C(N[C@@]12CCC(=O)[C@@H]3Oc4c(O)ccc5c4[C@@]31CCN(CC1CC1)[C@@H]2C5)c1cc2ccccc2cn1 [Compound 14]
[reply] 7.85

[ask] And O=C(N[C@@]12CCC(=O)[C@@H]3Oc4c(O)ccc5c4[C@@]31CCN(CC1CC1)[C@@H]2C5)c1ccccn1 [Compound 10] ?
[reply] 7.71

Continue with the next molecule.
[ask] // query pEC50 value for entry O=C(N[C@@]12CCC(=O)[C@@H]3Oc4c(O)ccc5c4[C@@]31CCN(CC1CC1)[C@@H]2C5)c1cccnc1 [Compound 11]
[reply] 8.49

====

Below are compounds with their pKi as measured on kappa opioid receptor (KOR) (Mus musculus).
Sequence (P33534 whole entry): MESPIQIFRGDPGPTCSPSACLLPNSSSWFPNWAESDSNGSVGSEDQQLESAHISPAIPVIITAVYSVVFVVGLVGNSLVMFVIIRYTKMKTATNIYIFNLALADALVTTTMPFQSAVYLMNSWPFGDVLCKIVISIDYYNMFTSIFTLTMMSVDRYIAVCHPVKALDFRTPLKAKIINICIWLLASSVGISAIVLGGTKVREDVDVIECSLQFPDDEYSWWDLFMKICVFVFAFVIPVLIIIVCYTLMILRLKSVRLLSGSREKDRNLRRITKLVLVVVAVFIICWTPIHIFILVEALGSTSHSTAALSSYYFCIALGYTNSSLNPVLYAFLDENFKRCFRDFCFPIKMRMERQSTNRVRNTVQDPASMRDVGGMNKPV
Scale: pKi equals -log10([C]), with [C] in mol/L.

[ask] // query pKi value for entry O=C(N[C@@]12CCC(=O)[C@@H]3Oc4c(O)ccc5c4[C@@]31CCN(CC1CC1)[C@@H]2C5)c1cnc2ccccc2c1 [Compound 16]
[reply] 9.89

[ask] And O=C(O[C@@]12CCC(=O)[C@@H]3Oc4c(O)ccc5c4[C@@]31CCN(CC1CC1)[C@@H]2C5)c1ccc2ccccc2n1 [Compound 7] ?
[reply] 7.17

[ask] And O=C(N[C@@]12CCC(=O)[C@@H]3Oc4c(O)ccc5c4[C@@]31CCN(CC1CC1)[C@@H]2C5)c1cc2ccccc2cn1 [Compound 14] ?
[reply] 9.57

[ask] And O=C(N[C@@]12CCC(=O)[C@@H]3Oc4c(O)ccc5c4[C@@]31CCN(CC1CC1)[C@@H]2C5)c1cccnc1 [Compound 11] ?
[reply] 9.80

[ask] And O=C(N[C@@]12CCC(=O)[C@@H]3Oc4c(O)ccc5c4[C@@]31CCN(CC1CC1)[C@@H]2C5)c1ccccc1 [Compound 13] ?
[reply] 9.92

[ask] And O=C(O[C@@]12CCC(=O)[C@@H]3Oc4c(O)ccc5c4[C@@]31CCN(CC1CC1)[C@@H]2C5)c1ccc2ccccc2c1 [Compound 9] ?
[reply] 7.33

[ask] And O=C(N[C@@]12CCC(=O)[C@@H]3Oc4c(O)ccc5c4[C@@]31CCN(CC1CC1)[C@@H]2C5)c1ccc2ccccc2n1 [Compound 15] ?
[reply] 9.59

====

biological target: UniProt:P33534; assay: KOR [35S]-GTPγS binding assay
Listed here: items and their measured EC50.
Give a bare numeral; the unit nM is implied.

A selection of reference data follows.
[ask] // query EC50 value for entry "O=C(N[C@@]12CCC(=O)[C@@H]3Oc4c(O)ccc5c4[C@@]31CCN(CC1CC1)[C@@H]2C5)c1cc2ccccc2cn1"
[reply] 2.75

[ask] And "O=C(N[C@@]12CCC(=O)[C@@H]3Oc4c(O)ccc5c4[C@@]31CCN(CC1CC1)[C@@H]2C5)c1ccccn1" ?
[reply] 1.74

Continue with the next compound.
[ask] // query EC50 value for entry "O=C(N[C@@]12CCC(=O)[C@@H]3Oc4c(O)ccc5c4[C@@]31CCN(CC1CC1)[C@@H]2C5)c1cccnc1"
[reply] 0.56
